Source of measurements: ChEMBL document CHEMBL3988442

Percent Effect values, listed per item
studyTarget: Sialic acid-binding Ig-like lectin 9 (Homo sapiens) (UniProt Q9Y336)
Sequence (Q9Y336 whole entry): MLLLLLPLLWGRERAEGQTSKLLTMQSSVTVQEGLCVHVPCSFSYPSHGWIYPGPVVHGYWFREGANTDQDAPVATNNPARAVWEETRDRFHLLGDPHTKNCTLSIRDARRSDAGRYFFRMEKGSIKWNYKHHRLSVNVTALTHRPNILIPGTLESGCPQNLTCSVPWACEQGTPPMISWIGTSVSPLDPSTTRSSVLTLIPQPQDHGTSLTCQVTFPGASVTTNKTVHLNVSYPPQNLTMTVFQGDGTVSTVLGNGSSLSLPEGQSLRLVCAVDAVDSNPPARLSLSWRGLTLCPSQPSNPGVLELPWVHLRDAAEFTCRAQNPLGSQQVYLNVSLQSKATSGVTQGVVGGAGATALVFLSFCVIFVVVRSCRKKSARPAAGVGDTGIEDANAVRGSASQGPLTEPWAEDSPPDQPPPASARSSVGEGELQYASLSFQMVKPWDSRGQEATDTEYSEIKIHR
experiment: Hs-Siglec9 ALPHAscreen SOP 20170721
Design: scale not given: direction of the effect not stated beside the values
conditionParameters: 10 µM
Return type: number; implicit unit %.

Known results for compounds:
CS(=O)(=O)NCC1CCCN(C(=O)c2cc3ccccc3o2)C1 (stereo unspecified) ... 3.25
Cc1ncsc1C(=O)NC1CCN(CCC(N)=O)CC1 ... 11
Cc1ccc(C(=O)N2CCN(CCC(C)(C)C)CC2)c(=O)[nH]1 ... 4.25

Moving on to the next compound.
Under Sialic acid-binding Ig-like lectin 9 (Homo sapiens) (UniProt Q9Y336), report Percent Effect for O=C(CCc1cscn1)N1CCCC(n2ccnc2)C1 (stereo unspecified) -0.321
